Target protein (sequence): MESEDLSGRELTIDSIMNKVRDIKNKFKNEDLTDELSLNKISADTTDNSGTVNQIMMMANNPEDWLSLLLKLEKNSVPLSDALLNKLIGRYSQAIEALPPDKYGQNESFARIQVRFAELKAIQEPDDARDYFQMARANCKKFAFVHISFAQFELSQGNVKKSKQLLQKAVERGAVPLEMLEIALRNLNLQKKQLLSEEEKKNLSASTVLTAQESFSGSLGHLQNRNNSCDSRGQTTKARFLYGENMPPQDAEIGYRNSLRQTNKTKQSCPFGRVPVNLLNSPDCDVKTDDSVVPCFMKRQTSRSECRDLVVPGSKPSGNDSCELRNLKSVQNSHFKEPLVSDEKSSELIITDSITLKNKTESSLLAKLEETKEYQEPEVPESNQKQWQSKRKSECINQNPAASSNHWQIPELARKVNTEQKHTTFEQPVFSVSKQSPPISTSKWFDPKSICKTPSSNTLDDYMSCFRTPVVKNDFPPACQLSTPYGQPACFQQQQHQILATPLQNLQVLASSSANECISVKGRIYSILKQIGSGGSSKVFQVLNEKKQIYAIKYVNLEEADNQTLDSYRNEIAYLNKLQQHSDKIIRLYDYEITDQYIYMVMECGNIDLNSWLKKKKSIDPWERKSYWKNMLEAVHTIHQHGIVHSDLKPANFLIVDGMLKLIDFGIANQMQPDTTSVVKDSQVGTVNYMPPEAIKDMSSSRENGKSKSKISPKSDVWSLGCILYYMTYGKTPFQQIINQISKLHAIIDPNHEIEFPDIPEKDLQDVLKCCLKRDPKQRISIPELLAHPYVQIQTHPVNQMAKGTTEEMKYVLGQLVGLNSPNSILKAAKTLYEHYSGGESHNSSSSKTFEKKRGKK
The entries below are paired with their reported IC50.

# count of solved cases: 2
MOLECULE	READING
COc1cc(S(=O)(=O)N2CCOCC2)ccc1Nc1nc(C2CC2)c2c(C(F)(F)F)c[nH]c2n1	< 100 nM
N#Cc1c[nH]c2nc(Nc3ccc(C(=O)N4CCOCC4)c4c3OCO4)nc(NC3CCCCC3)c12	< 100 nM

Looking up COc1cc(S(=O)(=O)N2CCOCC2)ccc1Nc1nc(C2CC2)c2c(C#N)c[nH]c2n1 , I found its IC50 recorded as 101 to 300 nM

Notebook: COc1cc(S(=O)(=O)N2CCC(N3CCOCC3)CC2)ccc1Nc1nc(C2CC2)c2c(C#N)c[nH]c2n1 , IC50 read as < 100 nM

The reported IC50 of the molecule CCNc1nc(Nc2cc(F)c(S(=O)(=O)N3CCC(N4CCOCC4)CC3)cc2OC)nc2[nH]cc(C(F)(F)F)c12 was 301 to 1000 nM

Given item O=C(c1ccc(Nc2nc(C3CC3)c3c(C(F)(F)F)c[nH]c3n2)c2c1OCCO2)N1CCOCC1 , the value recorded as its IC50 is 101 to 300 nM

IC50 for N#Cc1c[nH]c2nc(Nc3ccc(C(=O)N4CCC(N5CCOCC5)CC4)c4c3OCCO4)nc(C3CC3)c12 is < 100 nM

Record CNc1nc(Nc2ccc(C(=O)N3CCC(N4CCOCC4)CC3)c3c2OCC3)nc2[nH]cc(C(F)(F)F)c12 , field IC50: < 100 nM

* * *

pIC50: −log10 of the molar value.
Entries with reported pIC50 on UniProtKB Q13627

Record excerpt, results attached:
MOLECULE	pIC50
N#Cc1c[nH]c2nc(Nc3ccc(C(=O)N4CCOCC4)c4c3OCC4)nc(NC3CCC3)c12	6.52 to 7.00
CC[C@H](C)Nc1nc(Nc2ccc(C(=O)N3CCOCC3)c3c2OCC3)nc2[nH]cc(C(F)(F)F)c12	6.00 to 6.52
CCCNc1nc(Nc2ccc(C(=O)N3CCN(C4COC4)CC3)c3c2OCCO3)nc2[nH]cc(C(F)(F)F)c12	> 7.00
COc1cc(P(C)(C)=O)ccc1Nc1nc(NCC2CC2)c2c(C(F)(F)F)c[nH]c2n1	6.00 to 6.52
COc1cc(S(=O)(=O)N2CCOCC2)ccc1Nc1nc(NCC(C)C)c2c(C#N)c[nH]c2n1	6.00 to 6.52

Readout pIC50 for CCCNc1nc(Nc2ccc(S(C)(=O)=O)cc2OC)nc2[nH]ccc12 [Example 9, 2,2,2-trifluoroacetate] , test system UniProtKB Q13627, was 6.00 to 6.52

Lab note: molecule CC(C)CNc1nc(Nc2ccc(C(=O)N3CCOCC3)c3c2OCCO3)nc2[nH]cc(C#N)c12 tested on UniProtKB Q13627; recorded pIC50 was 6.00 to 6.52
